target: Mitogen-activated protein kinase 1 (Homo sapiens, UniProt P28482); assay: AlphaScreen Assay: Compound potency against activated ERK2 is determined using a kinase assay that measures ERK2-catalyzed phosphorylation of biotinylated ERKtide peptide substrate ([Biotin]-AHA-KRELVEPLTPSGEAPNQALLR-[NH2], the peptide sequence derived from EGF receptor: SEQ ID NO:1). The assay is carried out in 50 mM HEPES [pH 7.5], 5 mM MgCl2, 1 mM DTT, 0.01% Tween-20, 0.05% BSA using 0.25 nM ERK2, 200 nM ERKtide peptide and 35 uM ATP (all concentrations are final in the reaction) in a total volume of 10.25 uL. A 16-point, half-log dilution series of compounds at 41x final concentration is used for generating IC50 curves. Compound dilution series are prepared in 100% DMSO. ERK2 is preincubated with compounds for 30 minutes at ambient temperature. Reaction is initiated by addition of a substrate cocktail of ERKtide peptide and ATP and is allowed to proceed for 2-3 hours at ambient temperature. Reaction is terminated by addition of 10 uL of a 2x stop buffer consisting of 100 mM Tris-Cl [pH 7.5], 25 mM EDTA, 0.01% Tween 20, 10 ug/mL of AlphaScreen Protein A Acceptor Beads, 10 ug/mL of Streptavidin Donor Beads (PerkinElmer, Waltham, Mass.), and 1.4 ug/mL phospho-EGF Receptor (Thr669) antibody (Cat #3056, Cell Signaling Technology, Danvers, Mass.).
Sequence (P28482 whole entry): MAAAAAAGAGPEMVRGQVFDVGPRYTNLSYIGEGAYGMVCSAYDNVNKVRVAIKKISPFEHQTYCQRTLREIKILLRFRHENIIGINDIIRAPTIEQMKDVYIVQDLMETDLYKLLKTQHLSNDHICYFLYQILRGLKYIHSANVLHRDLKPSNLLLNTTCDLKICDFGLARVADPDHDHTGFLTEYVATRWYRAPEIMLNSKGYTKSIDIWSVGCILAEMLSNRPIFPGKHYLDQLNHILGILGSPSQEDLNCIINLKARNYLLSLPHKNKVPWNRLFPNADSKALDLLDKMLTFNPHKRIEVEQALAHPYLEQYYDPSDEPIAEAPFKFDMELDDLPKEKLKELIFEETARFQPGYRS
PROPERTY NAME: IC50 (nM)

a: Nc1cc(-c2cc(C3CCOCC3)cnc2N)ccc1C(=O)N[C@H](CO)c1ccccc1
b: Nc1ncc(N2CCOCC2)cc1-c1ccc(C(=O)N[C@H](CO)c2ccccc2)c(F)c1
Returns: the label, a or b , whose recorded IC50 is the lower number. Let me know the label of the one you choose.
a
(a: 5.24 nM, b: 20.6 nM)
